B1: KRT71 (parent)
chain: ELRNVQDVVEDYKKRYEEEINKRT

- Variants of: B1
- Experimental details: protein stability index of a GFP-peptide fusion (GPS, HEK-293T) (PSI 1-6); higher = more stable;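 also: lentivirally expressed fusions sorted by FACS into six bins by GFP to DsRed ratio, PSI derived from sequencing read proportions per bin multiplied by bin number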
- Test context: c terminus: a fixed tail appended
Form field: protein stability index (one value per entry).
No unit in the answer, please; the number alone is enough.

The following variants have reported results that may help.
> print(dat)
   mutation.code                  readout  recorded.result
1           R23H  protein stability index             4.09
2           Y16D  protein stability index             4.38
3           E19K  protein stability index             3.21
4            Q6F  protein stability index              4.1
5           R15P  protein stability index             4.78

The variant `Y16N` showed protein stability index equal to 4.1

Measured protein stability index of `E18C` : 4.57

Consider `D7S` . Its measured protein stability index is 3.6

Sample `R23Y` ; protein stability index observed: 3.98

Short answer for `R3P` : protein stability index was 4.1

Documented protein stability index of `K13F` : 4.07
